The origin of these recorded values is patent US20240368157A1.

# assay_details: Approximate solubility estimates (solvent incremental addition, visual observation)
# Format: physicochemical
# condition: NMP, organic solvent or mixture, thermodynamic from solid, NMP, ambient; read-out: Solubility
outcome_measure: solubility (µg/mL)

{"compound": "CN(C)C(=O)Nc1cc(Oc2cnc3nc(Nc4cc(C(F)(F)F)cn(C)c4=O)n(C)c3c2C#N)ccn1 [Compound 1 Lot I]", "outcome_measure": "solubility", "unit_text": "µg/mL", "quantitative_result": 8000}

* * *

# target_or_test_system: JAK2 (JH1domain-catalytic, Y1007F, Y1008F) kinase (Homo sapiens, UniProt O60674, Y1007F/Y1008F)
# Construct: JAK2 (JH1domain-catalytic, Y1007F, Y1008F) kinase was expressed as N-terminal fusion
# Sequence (O60674 849-1124 Y1007F/Y1008F limits assumed): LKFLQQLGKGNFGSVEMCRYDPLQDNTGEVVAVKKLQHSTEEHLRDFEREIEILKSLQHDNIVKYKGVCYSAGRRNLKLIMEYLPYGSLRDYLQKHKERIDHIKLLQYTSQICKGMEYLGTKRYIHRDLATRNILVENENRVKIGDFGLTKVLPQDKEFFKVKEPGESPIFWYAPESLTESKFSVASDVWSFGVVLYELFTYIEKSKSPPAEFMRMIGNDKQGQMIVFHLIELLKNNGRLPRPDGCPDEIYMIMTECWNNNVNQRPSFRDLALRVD
# assay_details: JAK2 Binding Assay

{"molecule": "CN(C)C(=O)Nc1cc(Oc2cnc3nc(Nc4cc(C(F)(F)F)cn(C)c4=O)n(C)c3c2C#N)ccn1", "Kd": "< 10 nM"}

* * *

# assay_details: Approximate solubility estimates (solvent incremental addition, visual observation)
# Type: physicochemical
# condition: acetone:H2O (90:10), organic solvent or mixture, thermodynamic from solid, acetone:H2O (90:10), aw = 0.69, ambient; read-out: Solubility

{"molecule": "CN(C)C(=O)Nc1cc(Oc2cnc3nc(Nc4cc(C(F)(F)F)cn(C)c4=O)n(C)c3c2C#N)ccn1", "solubility, µg/mL": 2000}

* * *

# assay_details: Approximate solubility estimates (solvent incremental addition, visual observation)
# Format: physicochemical
# condition: acetone, organic solvent or mixture, thermodynamic from solid, Acetone, ambient; read-out: Solubility

{"compound": "CN(C)C(=O)Nc1cc(Oc2cnc3nc(Nc4cc(C(F)(F)F)cn(C)c4=O)n(C)c3c2C#N)ccn1 [Compound 1 Lot I]", "solubility, µg/mL": 1000}

* * *

# assay_details: Approximate solubility estimates (solvent incremental addition, visual observation)
# Assay type: physicochemical
# condition: AcOH:H2O (50:50), aqueous with cosolvent or surfactant or cyclodextrin, thermodynamic from solid, AcOH:H2O (50:50), aw = 0.84, ambient; read-out: Solubility

{"molecule": "CN(C)C(=O)Nc1cc(Oc2cnc3nc(Nc4cc(C(F)(F)F)cn(C)c4=O)n(C)c3c2C#N)ccn1", "unit_text": "mg/mL", "solubility": 14}

* * *

# assay_details: Approximate solubility estimates (solvent incremental addition, visual observation)
# Assay type: physicochemical
# condition: MeOH, organic solvent or mixture, thermodynamic from solid, MeOH, ambient; read-out: Solubility

{"molecule": "CN(C)C(=O)Nc1cc(Oc2cnc3nc(Nc4cc(C(F)(F)F)cn(C)c4=O)n(C)c3c2C#N)ccn1", "solubility": "< 1000 µg/mL"}

* * *

# assay_details: Approximate solubility estimates (solvent incremental addition, visual observation)
# Format: physicochemical
# condition: TFE, organic solvent or mixture, thermodynamic from solid, TFE, ambient; read-out: Solubility
outcome_measure: solubility

{"molecule": "CN(C)C(=O)Nc1cc(Oc2cnc3nc(Nc4cc(C(F)(F)F)cn(C)c4=O)n(C)c3c2C#N)ccn1", "outcome_measure": "solubility", "result": "17 mg/mL"}

* * *

# assay_details: Caco2 Permeability Assay
# Format: in vitro ADME
# condition: human, Caco-2, pH 7.4; apical to basolateral, 5 μM, 2 hours
Overview of reported Papp A→B at 2 h, 5 μM across a group of compounds:
outcome_measure: Papp A→B at 2 h, 5 μM (×10⁻⁶ cm/s)

{"compound": "CN(C)C(=O)Nc1cc(Oc2cnc3nc(Nc4cc(C(F)(F)F)cn(C)c4=O)n(C)c3c2C#N)ccn1 [Compound 1]", "outcome_measure": "Papp A→B at 2 h, 5 μM", "quantitative_result": 7}
{"compound": "CCN1CCN(Cc2ccc(Nc3nc4ccc(Oc5ccnc(NC(C)=O)c5)cc4n3C)cc2C(F)(F)F)CC1 [Compound R-1, reference compound]", "outcome_measure": "Papp A→B at 2 h, 5 μM", "quantitative_result": 0.4}
